# EXPERIMENTAL_SYSTEM: EGF receptor (Homo sapiens, UniProt P00533)
# Sequence (P00533 25-1210): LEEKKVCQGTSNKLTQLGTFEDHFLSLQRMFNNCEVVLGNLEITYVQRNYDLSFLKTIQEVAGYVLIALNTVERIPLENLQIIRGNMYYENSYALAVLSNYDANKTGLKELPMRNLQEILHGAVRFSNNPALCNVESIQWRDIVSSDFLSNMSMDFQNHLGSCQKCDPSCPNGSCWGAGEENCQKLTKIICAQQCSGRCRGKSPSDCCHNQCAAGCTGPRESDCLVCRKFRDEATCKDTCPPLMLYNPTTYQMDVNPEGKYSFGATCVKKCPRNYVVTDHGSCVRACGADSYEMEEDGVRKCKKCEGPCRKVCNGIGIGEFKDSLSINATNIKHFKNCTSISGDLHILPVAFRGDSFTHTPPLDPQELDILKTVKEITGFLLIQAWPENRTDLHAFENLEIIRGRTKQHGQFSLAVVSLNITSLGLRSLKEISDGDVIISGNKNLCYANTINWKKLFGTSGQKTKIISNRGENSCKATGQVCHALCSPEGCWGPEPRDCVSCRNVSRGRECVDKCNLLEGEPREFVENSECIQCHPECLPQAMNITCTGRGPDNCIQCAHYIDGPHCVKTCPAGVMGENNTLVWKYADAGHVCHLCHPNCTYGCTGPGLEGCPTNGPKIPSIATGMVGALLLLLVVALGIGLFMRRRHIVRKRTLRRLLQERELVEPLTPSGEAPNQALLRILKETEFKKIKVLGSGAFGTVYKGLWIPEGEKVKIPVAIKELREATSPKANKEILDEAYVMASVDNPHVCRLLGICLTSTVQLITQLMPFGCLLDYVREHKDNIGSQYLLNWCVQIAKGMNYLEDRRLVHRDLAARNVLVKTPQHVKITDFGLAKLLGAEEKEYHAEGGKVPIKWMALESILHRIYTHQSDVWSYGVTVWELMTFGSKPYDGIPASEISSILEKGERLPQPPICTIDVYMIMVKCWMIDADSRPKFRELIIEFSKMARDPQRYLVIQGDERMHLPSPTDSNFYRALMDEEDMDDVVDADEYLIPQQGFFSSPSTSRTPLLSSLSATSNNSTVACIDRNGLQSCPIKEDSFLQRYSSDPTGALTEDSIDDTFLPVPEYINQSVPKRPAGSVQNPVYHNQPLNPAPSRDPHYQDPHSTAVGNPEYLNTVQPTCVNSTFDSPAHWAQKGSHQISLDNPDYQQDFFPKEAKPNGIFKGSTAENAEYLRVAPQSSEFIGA
# PROTOCOL_SUMMARY: Inhibition of EGFR autophosphorylation (A431 cell lysate, EGF stimulation)
VALUE_TYPE: pIC50
Answers are plain numbers, as −log10 of the molar value.

Input line: // Input: `N#CC(=Cc1ccc2c(c1)OCO2)c1ccccn1` . Output its pIC50 only.
Output line: 6.00

###

# EXPERIMENTAL_SYSTEM: EGF receptor tyrosine kinase (Homo sapiens, UniProt P00533)
# Construct: WGA-purified EGF receptor from A431 cells; endogenous in cells
# Sequence (P00533 25-1210): as above
# RECORDED_CONDITIONS: read-out: IC50 (concentration of inhibitor required to inhibit 50% of polyGAT phosphorylation)
Assignment: determine reported IC50 for the given compounds.
Give bare numbers, in µM.

Please report IC50 for every entry that follows.
1. N#CC(C#N)=Cc1ccc2[nH]ccc2c1
2. N#CC(C#N)=Cc1c[nH]cn1

Output line:
2200
2600

Where these numbers come from: patent US5196446A
